System: Target C
Test Details: HiBiT protein abundance assay, Target C
Assay type: cell-based, human
Particulars: Homo sapiens, K562, 24 h, Table 13A, modified K562 cells
pIC50: −log10 of the molar value.
# Lookup of reported pIC50 keyed by entry

Molecule: c1n[nH]cc1-c1ccc(-c2ccc(N3C[C@H]4CNC[C@H]4C3)nn2)c2[nH]ncc12 [Compound 254]
pIC50: < 5.00

Molecule: CN(c1ccc(-c2ccc(-c3cn[nH]c3)c3ncsc23)nn1)[C@H]1C[C@]2(C)CC[C@](C)(C1)N2 [Compound 204]
pIC50: > 7.00

Molecule: CC1(C)CC(Oc2ccc(-c3cc(F)c(-c4cn[nH]c4)c4cn[nH]c34)nn2)CC(C)(C)N1 [Compound 307]
pIC50: 6.00 to 7.00

Problem: Enter pIC50 (test system Target C) for CCN(c1ccc(-c2ccc(-c3cn[nH]c3)c3cn[nH]c23)nn1)[C@@H]1C[C@H]2CCC[C@@H](C1)N2 [Compound 297]
Result: 6.00 to 7.00

Problem: Report the value of pIC50 obtained on Target C for CC(C)(C)NC1CCN(c2ccc(-c3ccc(-n4cccn4)c4[nH]ncc34)nn2)C1 (stereo not drawn) [Compound 380] .
Result: 5.00 to 6.00

Problem: State pIC50 (Target C) of C[C@H]1CN(c2ncc(-c3ccc(-c4cn[nH]c4)c4ncsc34)nn2)C[C@@H](C2CC2)N1 [Compound 568] .
Result: 5.00 to 6.00

Problem: Give pIC50; test system Target C; molecule c1nc2c(-c3cn[nH]c3)ccc(-c3ccc(S[C@@H]4C[C@H]5CC[C@@H](C4)N5)nn3)c2s1 [Compound 200]
Result: 5.00 to 6.00

Problem: Please respond with reported pIC50 (system Target C) for CN(C)C1CCN(c2ncc(-c3ccc(-c4cn[nH]c4)c4ncsc34)nn2)C1 (stereo not drawn) [Compound 413] .
Result: 6.00 to 7.00

Problem: Quote Target C pIC50 for entry [2H]C([2H])([2H])N(c1ccc(-c2ccc(-c3cn[nH]c3)c3cn[nH]c23)nn1)[C@@H]1C[C@H]2CC[C@@H](C1)N2 [Compound 299] .
Result: > 7.00

Problem: Name the recorded pIC50 of c1n[nH]cc1-c1ccc(-c2ccc(N3CCCC4(CCNC4)C3)nn2)c2[nH]ncc12 (stereo not drawn) [Compound 253] , assay system Target C.
Result: < 5.00

Problem: Tell me its pIC50 on Target C: c1nc2c(-c3cn[nH]c3)ccc(-c3ccc(O[C@@H]4C[C@H]5CCC[C@@H](C4)N5)nn3)c2[nH]1 [Compound 219]
Result: 6.00 to 7.00

Problem: Under Target C: report pIC50 of CN(c1ccc(-c2ccc(-c3ccc(=O)n(C)c3)c3scnc23)nn1)C1CC(C)(C)NC(C)(C)C1 [Compound 178] .
Result: < 5.00

Problem: Give measured pIC50 for c1nc2c(-c3cn[nH]c3)ccc(-c3ccc(N4CCC(NC5CC5)C4)nn3)c2s1 (stereo not drawn) [Compound 337] (Target C).
Result: < 5.00

Problem: Find pIC50 for c1n[nH]cc1-c1ccc(-c2ccc(N3CC4(CCCNC4)C3)nn2)c2[nH]ncc12 [Compound 218] on Target C and write it down.
Result: < 5.00

====

Quick list: IC50 per entry.
System: Target C
Test Details: Splicing RT-qPCR panel, Target C canonical junction (CJ) mRNA
Assay type: cell-based, human
Particulars: Homo sapiens, RT-qPCR panel, canonical junction mRNA; compound concentration having 50% response in CJ decrease; read-out: Target C IC50 (decrease in CJ mRNA levels)

Some compounds with recorded IC50:
Compound: c1cnn(-c2ccc(-c3ccc(O[C@@H]4C[C@H]5CC[C@@H](C4)N5)nn3)c3cn[nH]c23)c1 [Compound 308]
IC50: < 100 nM

Compound: CCN(c1ccc(-c2ccc(-c3cn[nH]c3)c3ncsc23)nn1)C1CC(C)(C)NC(C)(C)C1 [Compound 225]
IC50: 1000 to 10000 nM

Compound: c1cnn(-c2ccc(-c3ccc(N[C@@H]4C[C@H]5CC[C@@H](C4)N5)nn3)c3[nH]ncc23)c1 [Compound 278]
IC50: 100 to 1000 nM

Compound: CN(c1ccc(-c2ccc(-c3cn[nH]c3)c3ncsc23)nn1)[C@H]1C[C@H]2COC[C@@H](C1)N2 [Compound 355]
IC50: 1000 to 10000 nM

Compound: CN(c1ncc(-c2ccc(-c3cn[nH]c3)c3ncsc23)nn1)C1C[C@H]2CCC[C@H](C1)N2 (stereo partly shown) [Compound 421]
IC50: < 100 nM

Problem: # return recorded IC50 for entry CN(C)C1CCN(c2ncc(-c3ccc(-c4cn[nH]c4)c4ncsc34)nn2)C1 (stereo not shown) [Compound 413]
Result: 100 to 1000 nM

Problem: State its IC50: c1n[nH]cc1-c1ccc(-c2ccc(O[C@@H]3C[C@H]4CC[C@@H](C3)N4)nn2)c2cn[nH]c12 [Compound 328]
Result: > 10000 nM
